test_system: human Muscarinic M1 receptor (Homo sapiens (Human), UniProt P11229)
assay_method_text: Allosteric potency EC50 for muscarinic M1 receptor (CHO cells, pCRE-Luc reporter)
Format: cell-based
assay_setup: hM1 PAM EC50, in presence of EC20 of acetylcholine; luciferase activity, 4 hours
result_type: EC50 (nM)
Provide only the numeric value, understood in nM.

Consider the following illustrative entries.
O=C(N[C@@H]1CCNC[C@H]1F)c1cn(Cc2ccnc(F)c2)c2c(F)ccc(F)c12 (single isomer, unassigned; isomer-i) [Example 24]; 1390
O=C(N[C@H]1CCNC[C@H]1F)c1cn(Cc2ccnc(Cl)c2)c2c(F)ccc(F)c12 (single isomer, unassigned; isomer-i) [Example 29]; 2920
O=C(N[C@H]1CCNC[C@H]1F)c1cn(Cc2ccnc(Cl)c2)c2c(F)ccc(F)c12 (racemic) [Example 28]; 1570
O=C(N[C@H]1CCNC[C@H]1F)c1cn(Cc2ccc(F)cc2)c2cccc(F)c12 (single isomer, unassigned; isomer-i); 1080
O=C(N[C@H]1CCNC[C@H]1F)c1cn(Cc2ccnc(Cl)c2)c2cccc(F)c12 (single isomer, unassigned; isomer-i); 1690

Here's the next entry for you.
(Q) Consider the compound shown here: O=C(N[C@H]1CCNC[C@H]1F)c1cn(Cc2ccncc2F)c2c(F)ccc(F)c12 (single isomer, unassigned; isomer-i) What is its recorded EC50?
(A) 1100

---

assay_method_text: Rodent pharmacokinetic study
Format: in vivo, Male Wistar rats
assay_setup: male, Wistar, iv, 1 mg/kg, rat plasma
result_type: AUC(0-t) (ng·h/mL)
Provide only the numeric value, understood in ng·h/mL.

Consider the following illustrative entries.
O=C(N[C@H]1CCCC[C@@H]1O)c1cn(Cc2ccnc(Cl)c2)c2cccc(F)c12; 1150
Cn1cc(Cn2cc(C(=O)N[C@H]3CCCC[C@@H]3O)c3c(F)ccc(F)c32)cn1; 2920
O=C(N[C@H]1CCCC[C@@H]1O)c1cn(Cc2ccnc(F)c2)c2cccc(F)c12; 1120
O=C(N[C@H]1CCCC[C@@H]1O)c1cn(Cc2cc(F)ncc2F)c2c(F)ccc(F)c12; 609

(Q) Consider the molecule shown here: Cl.O=C(N[C@H]1CCNC[C@H]1F)c1cn(Cc2ccnc(F)c2)c2c(F)ccc(F)c12 (single isomer, unassigned; isomer-i) What is its recorded AUC(0-t)?
(A) 908

(Q) Consider the molecule shown here: `O=C(N[C@H]1CCCC[C@@H]1O)c1cn(Cc2ccnc(F)c2)c2c(F)ccc(F)c12` What is its recorded AUC(0-t)?
(A) 1830

(Q) Consider the molecule shown here: `Cn1cc(Cn2cc(C(=O)N[C@H]3CCCC[C@@H]3O)c3c(F)cccc32)cn1` What is its recorded AUC(0-t)?
(A) 2250

---

assay_method_text: Protein binding assay (HT dialysis), dog matrices
Format: in vitro ADME
assay_setup: pH 7.4, Dog plasma, 37° C., Mean ± SEM, n = 3, read-out: Fu Plasma
result_type: fraction unbound at 6 h, 1 μM
Reply briefly: the number, and no unit.

Consider the following illustrative entries.
Cn1cc(Cn2cc(C(=O)N[C@H]3CCCC[C@@H]3O)c3c(F)cccc32)cn1; 0.217
Cn1cc(Cn2cc(C(=O)N[C@H]3CCCC[C@@H]3O)c3c(F)ccc(F)c32)cn1; 0.163
O=C(N[C@H]1CCCC[C@@H]1O)c1cn(Cc2ccnc(F)c2)c2cccc(F)c12; 0.2
O=C(N[C@H]1CCCC[C@@H]1O)c1cn(Cc2ccnc(F)c2)c2c(F)ccc(F)c12; 0.064
Cl.O=C(N[C@H]1CCNC[C@H]1F)c1cn(Cc2ccnc(F)c2)c2c(F)ccc(F)c12 (single isomer, unassigned; isomer-i); 0.31
O=C(N[C@H]1CCCC[C@@H]1O)c1cn(Cc2ccnc(Cl)c2)c2c(F)ccc(F)c12; 0.043

Here's the next entry for you.
(Q) Consider the molecule shown here: `O=C(N[C@H]1CCCC[C@@H]1O)c1cn(Cc2ccnc(Cl)c2)c2cccc(F)c12` What is its recorded fraction unbound at 6 h, 1 μM?
(A) 0.087

---

test_system: human Muscarinic M1 receptor (Homo sapiens (Human))
assay_method_text: Allosteric potency EC50 for muscarinic M1 receptor (CHO cells, pCRE-Luc reporter)
Assay type: cell-based
assay_setup: in presence of EC20 of acetylcholine; luciferase activity, 4 hours; read-out: hM1 PAM EC50
result_type: EC50 (µM)
Provide only the numeric value, understood in µM.

O=C(N[C@H]1CCCC[C@@H]1O)c1cn(Cc2ccc3ncsc3c2)c2cccc(F)c12; 0.16
O=C(N[C@H]1CCCC[C@@H]1O)c1cn(Cc2ccnc(Cl)c2)c2cccc(F)c12; 0.681
O=C(N[C@H]1CCCC[C@@H]1O)c1cn(Cc2cc(F)ncc2F)c2c(F)ccc(F)c12; 0.432
O=C(N[C@H]1CCCC[C@@H]1O)c1cn(Cc2ccncc2F)c2cccc(F)c12; 1.42
O=C(N[C@H]1CCCC[C@@H]1O)c1cn(Cc2ccnc(F)c2F)c2cccc(F)c12; 1.38
O=C(N[C@H]1CCCC[C@@H]1O)c1cn(Cc2cc(F)ncc2F)c2cccc(F)c12; 1.53
Cn1cc(Cn2cc(C(=O)N[C@@H]3CCCC[C@H]3O)c3c(F)cccc32)cn1; 1.64
O=C(N[C@H]1CCCC[C@@H]1O)c1cn(Cc2cnn(CCF)c2)c2cccc(F)c12; 0.744
Cn1nc(Cn2cc(C(=O)N[C@H]3CCCC[C@@H]3O)c3c(F)cccc32)c2ccccc21; 1.49
O=C(N[C@H]1CCCC[C@@H]1O)c1cn(Cc2ccnc(F)c2)c2cccc(F)c12; 1.36

(Q) Query EC50 on human Muscarinic M1 receptor (Homo sapiens (Human)) for `O=C(N[C@H]1CCCC[C@@H]1O)c1cn(Cc2ccnc(F)c2)c2c(F)ccc(F)c12`
(A) 0.192

(Q) Query EC50 on human Muscarinic M1 receptor (Homo sapiens (Human)) for `Cn1cc(Cn2cc(C(=O)N[C@H]3CCCC[C@@H]3O)c3c(F)cccc32)cn1`
(A) 1.26

(Q) Query EC50 on human Muscarinic M1 receptor (Homo sapiens (Human)) for `O=C(N[C@H]1CCCC[C@@H]1O)c1cn(Cc2ccnc(Cl)c2)c2c(F)ccc(F)c12`
(A) 0.122

(Q) Query EC50 on human Muscarinic M1 receptor (Homo sapiens (Human)) for `O=C(N[C@H]1CCCC[C@@H]1O)c1cn(Cc2ccncc2F)c2c(F)ccc(F)c12`
(A) 0.94

---

assay_method_text: Protein binding assay (HT dialysis), rat matrices
Assay type: in vitro ADME
assay_setup: pH 7.4, Rat brain homogenate, 37° C., Mean ± SEM, n = 3, read-out: Fu Brain
result_type: fraction unbound at 6 h, 1 μM
Reply briefly: the number, and no unit.

Consider the following illustrative entries.
Cn1cc(Cn2cc(C(=O)N[C@H]3CCCC[C@@H]3O)c3c(F)ccc(F)c32)cn1; 0.128
O=C(N[C@H]1CCCC[C@@H]1O)c1cn(Cc2ccnc(F)c2)c2cccc(F)c12; 0.06
Cl.O=C(N[C@H]1CCNC[C@H]1F)c1cn(Cc2ccnc(F)c2)c2c(F)ccc(F)c12 (single isomer, unassigned; isomer-i); 0.067

Here's the next entry for you.
(Q) Consider the molecule shown here: `O=C(N[C@H]1CCCC[C@@H]1O)c1cn(Cc2ccnc(F)c2)c2c(F)ccc(F)c12` What is its recorded fraction unbound at 6 h, 1 μM?
(A) 0.0348

---

# reported half-life; entries follow
assay_method_text: Rodent pharmacokinetic study
Assay type: in vivo, Male Wistar rats
assay_setup: male, Wistar, iv, 1 mg/kg, rat plasma
Provide only the numeric value, understood in h.

Consider the following illustrative entries.
Cl.O=C(N[C@H]1CCNC[C@H]1F)c1cn(Cc2ccnc(F)c2)c2c(F)ccc(F)c12 (single isomer, unassigned; isomer-i); 7.6
O=C(N[C@H]1CCCC[C@@H]1O)c1cn(Cc2ccnc(F)c2)c2c(F)ccc(F)c12; 1.8
O=C(N[C@H]1CCCC[C@@H]1O)c1cn(Cc2cc(F)ncc2F)c2c(F)ccc(F)c12; 1.6

(Q) Consider the compound shown here: `O=C(N[C@H]1CCCC[C@@H]1O)c1cn(Cc2ccnc(Cl)c2)c2cccc(F)c12` What is its recorded half-life?
(A) 1.9

(Q) Consider the compound shown here: `Cn1cc(Cn2cc(C(=O)N[C@H]3CCCC[C@@H]3O)c3c(F)cccc32)cn1` What is its recorded half-life?
(A) 3

(Q) Consider the compound shown here: `O=C(N[C@H]1CCCC[C@@H]1O)c1cn(Cc2ccnc(F)c2)c2cccc(F)c12` What is its recorded half-life?
(A) 2

(Q) Consider the compound shown here: `Cn1cc(Cn2cc(C(=O)N[C@H]3CCCC[C@@H]3O)c3c(F)ccc(F)c32)cn1` What is its recorded half-life?
(A) 4

---

# reported AUC(0-t); entries follow
assay_method_text: Rodent pharmacokinetic study
Format: in vivo, Male Wistar rats
assay_setup: male, Wistar; oral, 3 mg/kg, rat plasma
Provide only the numeric value, understood in ng·h/mL.

Consider the following illustrative entries.
O=C(N[C@H]1CCCC[C@@H]1O)c1cn(Cc2cc(F)ncc2F)c2c(F)ccc(F)c12 [Example 12]; 1140
O=C(N[C@H]1CCCC[C@@H]1O)c1cn(Cc2ccnc(F)c2)c2c(F)ccc(F)c12 [Example 8]; 2500
Cn1cc(Cn2cc(C(=O)N[C@H]3CCCC[C@@H]3O)c3c(F)cccc32)cn1 [Example 1]; 5160

Here's the next entry for you.
(Q) Consider the molecule shown here: Cn1cc(Cn2cc(C(=O)N[C@H]3CCCC[C@@H]3O)c3c(F)ccc(F)c32)cn1 [Example 5] What is its recorded AUC(0-t)?
(A) 7870
